Test: NCI Yeast Anticancer Drug Screen. Data for the mec2-1 strain (AID 157)
Details: S. cerevisiae mec2-1 strain, at 50.0 µM (retest, dose inferred, filed as 5.0)
About 79,000 compounds went through this panel and 15% of them were active in at least one assay; those are over-represented in the sample as a whole. Activity calls are given as the source filed them. Rule as the data show it: active = growth inhibition above about 70%; inactive = the rest.
Labels: class 1 for active, class 0 for inactive

{"compound": "CCOC(=O)C1=C(Nc2ccc(Br)cc2)OC/C1=N\\NC(=O)c1ccccc1O", "assignedLabel": "class 0"}
{"compound": "O=C(CC(=O)c1ccccc1)CC(=O)c1ccccc1Br", "assignedLabel": "class 1"}
{"compound": "O=C(CC(=O)c1ccccc1NC1=Cc2ccccc2C(=O)C1=O)C(=O)NC1=C(Cl)C(=O)c2ccccc2C1=O", "assignedLabel": "class 1"}
{"compound": "Cc1nc(Nc2ccc(Cl)cc2)sc1C(=O)NNc1ccc([N+](=O)[O-])cc1[N+](=O)[O-]", "assignedLabel": "class 0"}
{"compound": "CCCCCCCCCCCCCCNCCN", "assignedLabel": "class 0"}
{"compound": "NC(=O)N/N=C/C(O)C(O)C(O)C(O)CO (configuration not stated)", "assignedLabel": "class 0"}
{"compound": "CC(=O)Nc1ccc(C#N)c2ccccc12", "assignedLabel": "class 0"}
{"compound": "Cn1c(=O)c2c(O)c(-c3ccccc3)c(=O)n3c4ccccc4n(c1=O)c23", "assignedLabel": "class 0"}
{"compound": "COc1cccc(C2c3cc4c(cc3OC(N3CCCC3)C2C)OCO4)c1 (configuration not stated)", "assignedLabel": "class 1"}
{"compound": "COS(=O)c1cc(Cl)cc(Cl)c1OC(=O)CSSCC(=O)Oc1c(Cl)cc(Cl)cc1S(=O)OC (configuration not stated)", "assignedLabel": "class 1"}
{"compound": "CC(C)NCCCNc1nc(NCCCNC(C)C)c2nc(-c3ccccc3)c(-c3ccccc3)nc2n1", "assignedLabel": "class 1"}
{"compound": "CCCCCCCCCCCCCCCC[N+](C)(C)c1ccccc1", "assignedLabel": "class 1"}
{"compound": "COc1c(OC)c(C2(O)C(=O)N(C)c3ccccc32)c(OC)c(OC)c1C1(O)C(=O)N(C)c2ccccc21 (configuration not stated)", "assignedLabel": "class 0"}
{"compound": "CCCCCCCCCCOC(=O)Nc1ccc(C)c(NC(=O)OCCCCCCCCCC)c1", "assignedLabel": "class 0"}
{"compound": "CC(C)(Cl)C(Cl)CC/C(CBr)=C(\\Cl)CCl (configuration not stated)", "assignedLabel": "class 1"}
{"compound": "CCOC(=O)C(CCOC)C(=O)OCC", "assignedLabel": "class 0"}
{"compound": "CC(C)C1=CC2=CCC3C(C)(C(=O)O)CCCC3(C)C2CC1 (configuration not stated) (tested in a mixture with another compound)", "assignedLabel": "class 1"}
{"compound": "CC(=O)C(=C(I)I)c1ccccc1", "assignedLabel": "class 1"}
{"compound": "O=c1[nH]cc(F)c(=O)n1C1CCCCO1 (configuration not stated)", "assignedLabel": "class 0"}
{"compound": "C=C1C(=O)C23CC[C@H]4C(C)(CCC[C@]4(C)C(=O)O)[C@@H]2CCC1C3 (some centres not stated)", "assignedLabel": "class 1"}
{"compound": "Cc1ccc(NC(=O)Cc2nc3ccccc3s2)c(C)c1", "assignedLabel": "class 1"}
{"compound": "Cc1cc2c(=O)[nH]c(N)nc2nc1C", "assignedLabel": "class 0"}

====

Experiment: NCI Yeast Anticancer Drug Screen. Data for the mec2-1 strain (AID 157)
Conditions: S. cerevisiae mec2-1 strain, at 5.0 µM (retest, dose inferred, filed as 0.5)
The panel holds about 79,000 compounds, 15% with a hit somewhere; the sample as a whole holds those more often. Activity calls are given as the source filed them. Cut-off read from the data, not from the text of the source: active = growth inhibition above about 70%; inactive = the rest.
Outcome codes: TRUE (active), FALSE (inactive)

{"molecule": "O=S(=O)(Nc1ccc2ccc3cccc4ccc1c2c34)c1ccccc1", "assignedLabel": "FALSE"}
{"molecule": "NC(=S)C(=Nc1ccccc1F)Nc1ccccc1F", "assignedLabel": "FALSE"}
{"molecule": "Cc1ccc(S(=O)(=O)OC2C(C)OCOC(C)C2OS(=O)(=O)c2ccc(C)cc2)cc1 (stereo not given)", "assignedLabel": "FALSE"}
{"molecule": "Nc1cc(F)c2c(c1F)C(=O)c1cc(F)ccc1-2", "assignedLabel": "FALSE"}
{"molecule": "CCC[CH2][Sn]([CH2]CCC)([O]C(=O)c1cc(F)ccc1F)[O]C(=O)c1cc(F)ccc1F", "assignedLabel": "FALSE"}
{"molecule": "C=C(C)C1CC2=C(O1)C(=O)c1ccccc1C2=O (stereo not given)", "assignedLabel": "FALSE"}
{"molecule": "CC(C)=C1C=C2CCC3C(C)(C(=O)O)CCCC3(C)C2CC1 (stereo not given) (tested in a mixture with another compound)", "assignedLabel": "FALSE"}
{"molecule": "CCCCCCCCCCCCC1N=C(N)N2CCCC2=C1C(=O)OC (stereo not given)", "assignedLabel": "TRUE"}
{"molecule": "O=C1CSC(=S)N1c1ccc(F)cc1F", "assignedLabel": "FALSE"}
{"molecule": "CCOc1ccc(/C=C2\\NC(=S)N(/C=C3\\C(=O)Oc4ccccc4C3=O)C2=O)cc1", "assignedLabel": "FALSE"}

====

Each entry below carries its reported growth inhibition.
Assay: NCI Yeast Anticancer Drug Screen. Data for the mlh1 rad18 strain (AID 175)
Details: S. cerevisiae mlh1 rad18 strain growth inhibition; at 5.0 µM (retest, dose inferred, filed as 0.5); stronger effect = higher value
The panel holds about 79,000 compounds, 15% with a hit somewhere; the sample as a whole holds those more often.
endpointName: growth inhibition (%)

{"compound": "NC(=O)c1ccc[n+](CC(=O)Nc2ccc(Cl)cc2)c1", "readoutNumber": 11}
{"compound": "CC(C)(C)C(=O)CC(=O)C(F)(F)C(F)(F)C(F)(F)F.CC(C)(C)C(=O)CC(=O)C(F)(F)C(F)(F)C(F)(F)F.CC(C)(C)C(=O)CC(=O)C(F)(F)C(F)(F)C(F)(F)F.[Er]", "readoutNumber": 90}
{"compound": "Cc1ccc(C2=CC(=O)/C(=C\\C(=O)c3ccc(Cl)cc3)O2)cc1", "readoutNumber": 37}
{"compound": "O=c1ccc2nc3ccccc3ccc-2c1", "readoutNumber": -117}
{"compound": "O=NNc1ccc(Sc2ccc3ccccc3c2)cn1", "readoutNumber": 25}
{"compound": "O=C(Nc1nnc(-c2ccccc2)s1)c1cc(=O)c2cc(Cl)ccc2o1", "readoutNumber": 2}
{"compound": "O=C1NC(=S)S/C1=C\\c1ccc(F)cc1", "readoutNumber": -4}
{"compound": "Cc1ccc(-[n+]2cc([O-])on2)cc1", "readoutNumber": -7}
{"compound": "O=[N+]([O-])c1ccccc1CC(c1c[nH]c2ccccc12)c1c[nH]c2ccccc12", "readoutNumber": 1}
{"compound": "O=C1C=CC(=O)N1c1ccccc1 (tested in a mixture with another compound)", "readoutNumber": -1}
{"compound": "C/C(=N\\NC(=S)N1CCC(C)CC1)c1cccc2cccnc12", "readoutNumber": -8}
{"compound": "NC(=O)c1c(Cl)nc2n1CCS2", "readoutNumber": 4}
{"compound": "CC(=O)Nc1c([N+](=O)[O-])cc2c3c(cccc13)C=C2", "readoutNumber": 31}
{"compound": "C=C1C(=O)C23CC[C@H]4C(C)(CCC[C@]4(C)C(=O)O)[C@@H]2CCC1C3 (some centres not stated)", "readoutNumber": 97}
{"compound": "C/C=C1/C=CC2c3[nH]c4ccccc4c3CCN2C1 (configuration not stated)", "readoutNumber": -137}
{"compound": "COC(=O)c1nc(Cl)nc(Cl)c1N", "readoutNumber": 11}
{"compound": "S=c1sc2ccccc2n1CNc1ccccc1", "readoutNumber": 5}
{"compound": "CCOC(=O)N1CCN(CCCCCCOc2ccc(C(C)(C)C)cc2)CC1", "readoutNumber": 38}
{"compound": "ON(Cc1ccccc1)C(=S)c1ccccc1", "readoutNumber": 25}
{"compound": "CC(CO)(CO)Cc1ccccc1", "readoutNumber": 2}
{"compound": "Nc1ccccc1Sc1ccc(C(F)(F)F)cc1[N+](=O)[O-]", "readoutNumber": -1}
{"compound": "CCOc1nc(N)nc(C)c1N=Nc1ccc(Cl)cc1Cl", "readoutNumber": 14}
{"compound": "Cc1ccccc1C(O)(c1ccccc1C)C1(O)CCN(C)CC1", "readoutNumber": 13}
{"compound": "O=C1C/C(=C\\c2ccccc2)C(=O)c2ccccc2N1", "readoutNumber": -18}
{"compound": "Cc1cc(N)c2cc(OCCOc3ccc4nc(C)cc(N)c4c3)ccc2n1", "readoutNumber": 91}
{"compound": "O=Cc1[nH]c(=S)[nH]c(=O)c1CCCc1ccccc1", "readoutNumber": 11}
{"compound": "O=[N+]([O-])C1=Cc2ccccc2S(=O)(=O)CC1", "readoutNumber": 21}
{"compound": "C/C(=N\\OS(=O)(=O)O)SC1OC(CO)C(O)C(O)C1O (configuration not stated)", "readoutNumber": 6}
{"compound": "CCN(CCO)CC1OC(OC)C2OC(C)(C)OC12 (configuration not stated)", "readoutNumber": -1}
{"compound": "CC(=O)CC(C)=NCCN=C(C)CC(C)=O.[Pd]", "readoutNumber": -9}
{"compound": "Cc1cccc(N=Nc2ccc(O)cc2)c1", "readoutNumber": -154}
{"compound": "CC1=NC(c2ccccc2)(C2(c3ccccc3)C(c3ccccc3)=C2c2ccccc2)C(=O)O1 (configuration not stated)", "readoutNumber": 27}
{"compound": "CCN(CC)CCSCCCNc1cc(OC)cc2cccnc12", "readoutNumber": 7}
{"compound": "O=C(CC1Sc2ccccc2NC1=O)Nc1ccc([N+](=O)[O-])cc1[N+](=O)[O-] (configuration not stated)", "readoutNumber": 51}
{"compound": "CCc1c(C(=O)OC)c(C(=O)OC)c(-c2ccccc2)n1CCn1c(CC)c(C(=O)OC)c(C(=O)OC)c1-c1ccccc1", "readoutNumber": 2}
{"compound": "CCC/C(=N\\O)S(=O)(=O)c1ccc(NN=O)nc1", "readoutNumber": -33}
{"compound": "CC1(c2ccc(Cl)cc2)OC(=O)C(=Cc2ccc([N+](=O)[O-])s2)C(=O)O1 (configuration not stated)", "readoutNumber": 18}
{"compound": "Cc1cc(O)c(NCCN(C)C)c2c(=O)c3ccccc3sc12", "readoutNumber": 5}
{"compound": "CCNC(=O)NNc1ncnc2c1c(-c1ccc(Cl)cc1)cn2-c1ccc(C)cc1", "readoutNumber": -17}
{"compound": "O=C(CBr)c1cc(-c2ccc(Cl)cc2)nc2ccccc12", "readoutNumber": 97}
{"compound": "O=C1NN=C(c2ccc(Cl)cc2)CC1C1C(=O)N(c2ccccc2)N=C1c1ccccc1 (configuration not stated)", "readoutNumber": 97}
{"compound": "CN1CCN(CCCN)CC1", "readoutNumber": -2}
{"compound": "CC(=O)N/N=C/c1ccc([N+](=O)[O-])o1", "readoutNumber": 17}
{"compound": "COc1ccc(-c2cc3ccccc3c(=O)n2Cc2ccccc2)cc1", "readoutNumber": 11}
{"compound": "CCCC(Sc1ccccc1)c1ccccc1NC(C)=O (configuration not stated)", "readoutNumber": 2}
{"compound": "CCOC(=O)N/N=C/c1ccc(N(C)CCC#N)cc1", "readoutNumber": 14}
{"compound": "CCCCCCC(O)(CCCCCC)CCCCCC", "readoutNumber": 1}
